Data origin: PubChem BioAssay AID1417

Give measured pIC50 for each item. Keep answers brief.
# tested target: Induced myeloid leukemia cell differentiation protein Mcl-1 (Homo sapiens)
# procedure details: Mcl-1/Noxa binding inhibitor potency, dose response, biochemical, TR-FRET (AID 1417)
# condition notes: Mcl-1/Noxa peptide interaction, cell-free TR-FRET (terbium/rhodamine), 2 h; measured here: absolute IC50
Recall that pIC50 is obtained by taking minus log10 of the concentration measured in molar.

Note to self: pIC50 recorded for Cc1nc(NC(=O)c2ccco2)sc1-c1csc(Nc2ccc(Cl)cc2Cl)n1 was 5.91

Record O=C1N=c2ccccc2=C1c1sc(Nc2ccc(O)cc2)nc1O , field pIC50: 5.92

---

# tested target: Induced myeloid leukemia cell differentiation protein Mcl-1 (Homo sapiens) (UniProt Q07820)
# Sequence (Q07820 whole entry, looked up): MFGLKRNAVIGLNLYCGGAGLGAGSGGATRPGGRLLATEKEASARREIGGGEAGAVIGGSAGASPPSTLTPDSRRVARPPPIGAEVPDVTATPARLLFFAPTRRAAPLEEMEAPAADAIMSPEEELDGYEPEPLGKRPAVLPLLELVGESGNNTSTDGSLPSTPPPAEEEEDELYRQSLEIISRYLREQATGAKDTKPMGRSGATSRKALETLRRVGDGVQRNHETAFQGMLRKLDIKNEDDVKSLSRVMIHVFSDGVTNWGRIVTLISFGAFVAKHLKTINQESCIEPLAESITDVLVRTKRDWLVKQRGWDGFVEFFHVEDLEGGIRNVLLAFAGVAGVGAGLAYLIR
# procedure details: Mcl-1/Noxa binding inhibitor potency, dose response, biochemical, TR-FRET (AID 1417)
# condition notes: Mcl-1/Noxa peptide interaction, cell-free TR-FRET (terbium/rhodamine), 2 h; measured here: absolute IC50
observable: pIC50
Value format note: pIC50 is -log10 of concentration (mol/L); just state the number.

Lab book: pIC50 of O=c1c2c3c(sc2[nH]c(=S)n1Cc1ccco1)CCC3 noted as 5.85

The compound listed as COc1ccc(OCC(=O)Nc2nnc(-c3ccco3)s2)cc1 has a reported pIC50 of 5.42

Record CC1=NN(c2ccccc2)C(=O)/C1=C/c1c(O)n(-c2ccc(F)c(Cl)c2)[nH]c1=O . Reported pIC50: 5.32

Looking up CC(/C=C1\SC(=S)N(NS(=O)(=O)c2ccc(C)cc2)C1=O)=C\c1ccccc1 , I see its pIC50 listed as 5.25

// pIC50 value for COc1ccc2nc(N3C(=O)/C(=C/c4ccc(Cl)cc4)NC3=S)sc2c1 : 5.85

Record summary for C=C(C)C(=O)Nc1cccc(C2=NOC3(C2)C[C@H](C(N)=O)N(C(=O)C(c2ccccc2)c2ccccc2)C3)c1 (some centres undefined) : reported pIC50 = 5.35

Entry under test: COc1ccc(-c2ccc(/C=C3/C(=N)N4C=CSC4=NC3=O)o2)c([N+](=O)[O-])c1 . Its pIC50 was 5.78

response.value for CCc1ccc(-n2cccc2/C=C2/C(=N)N3C(=NC2=O)SN=C3S(C)(=O)=O)cc1 (field: pIC50) = 5.35

The compound COc1ccc(-c2ccc(/C=N/NC(=O)c3cccnc3)o2)c([N+](=O)[O-])c1 showed pIC50 equal to 5.36

Value of measured pIC50 for the entry O=C(O)CCCCCN1C(=O)/C(=C\c2cn(-c3ccccc3)nc2-c2cccs2)SC1=S : 5.60

Looking up Cc1ccc(-c2ccc(/C=C3/NC(=O)NC3=O)o2)cc1[N+](=O)[O-] , I found its pIC50 recorded as 5.19

// recorded pIC50 for Cc1ccc(-c2nnc3ccc(SC(C)C(=O)O)nn23)cc1 (centres undefined) : 5.33

The compound listed as COc1cc(C2C3=C(Nc4nc(N)[nH]c(=O)c42)c2ccccc2C3=O)ccc1O (centres undefined) has a reported pIC50 of 5.64

Lab book: pIC50 of CN(C)c1ccc(NC(=O)c2cccc(C(=O)Nc3ccc(N(C)C)cc3)n2)cc1 noted as 5.39

pIC50 in this record for CCN(CC)C(=O)CC(c1cc(OC)c(OC)c(OC)c1)c1c(OC)cc(OC)c2c(-c3ccccc3)cc(=O)oc12 (centres undefined) : 5.39

The value of pIC50 measured for the compound CC(=O)Nc1ccc(-c2csc(NC(=O)C3CC(=O)N(c4ccc5c(c4)OCCO5)C3)n2)cc1 (centres undefined) turned out to be 5.49

pIC50 reported for this compound Cc1sc(NC(=O)c2cc(-c3ccc(Cl)cc3)nc3ccccc23)c(C(N)=O)c1C : 4.74

Notebook: c1ccc(-c2ccc(-c3n(-c4ccccn4)c4ccccc4[n+]3-c3ccccn3)cc2)cc1 , pIC50 read as 4.46

Consider O=C1NC(=S)/C(=C\c2ccc(-c3ccccc3Cl)o2)S1 . Its measured pIC50 is 5.67

Value of measured pIC50 for the entry COc1ccc(NC(=O)c2cc3cccc(OC)c3oc2=Nc2ccc(C(=O)O)cc2)cc1OC : 5.62

COc1ccccc1C1C2=C(N=c3s/c(=C/c4cccc(OCC(=O)O)c4)c(=O)n31)c1ccccc1CC2 (centres undefined) yielded pIC50 of 5.67

pIC50 for CCOc1ccc(C(=O)Nc2cc(NC(=O)c3ccc(OCC)c(Cl)c3)cc(C(=O)O)c2)cc1Cl is 4.78

Cc1ccc(CSc2nnc(SCC(=O)N/N=C/c3c[nH]c4ccccc34)s2)cc1 yielded pIC50 of 5.00

---

# tested target: Induced myeloid leukemia cell differentiation protein Mcl-1 (Homo sapiens) (UniProt Q07820)
# procedure details: Mcl-1/Noxa binding inhibitor potency, dose response, biochemical, TR-FRET (AID 1417)
# condition notes: Mcl-1/Noxa peptide interaction, cell-free TR-FRET (terbium/rhodamine), 2 h; measured here: absolute IC50
observable: IC50 (µM)
Your answer is read as µM, so omit the unit and give the number.

Entry Nc1ccc(N)c(C(=O)O)c1 — recorded IC50 = 1.31

For CC(=O)c1ccc(NC(=O)CSc2nnc(-c3ccco3)c(-c3ccco3)n2)cc1 the compound record lists IC50 as 5.96

The compound identified as O=C1NC(=O)C(=Cc2ccc(-c3cc(Cl)ccc3[N+](=O)[O-])o2)C(=O)N1 registered its IC50 at 3.25

Consider O=C1NN(c2ccccc2)C(=O)/C1=C\c1ccc(-c2cc([N+](=O)[O-])ccc2O)o1 . Its measured IC50 is 9.71

For reference, reported IC50 for Cc1ccc(-c2cc(C(=O)N3CCN(c4ncccn4)CC3)c3cc(Br)ccc3n2)o1 stands at 3.78

---

For each of the compounds below, state its IC50.
# tested target: Induced myeloid leukemia cell differentiation protein Mcl-1 (Homo sapiens) (UniProt Q07820)
# procedure details: Mcl-1/Noxa binding inhibitor potency, dose response, biochemical, TR-FRET (AID 1417)
# condition notes: Mcl-1/Noxa peptide interaction, cell-free TR-FRET (terbium/rhodamine), 2 h; measured here: absolute IC50

The compound O=C1CC(c2ccc(O)c(O)c2)Oc2c1ccc(O)c2O (stereo not given) showed IC50 equal to 2460 nM

Kindly note the recorded IC50 for CNC(=O)COC(=O)c1cc(-c2ccco2)nc2ccccc12 , which is 3160 nM

What the record says about N=c1c(C(=O)NCc2ccc(F)cc2)cc2c(=O)n3ccccc3nc2n1Cc1cccnc1 : IC50 is 3210 nM

IC50 measured on Cc1ccc(S(=O)(=O)/N=C2/C=C(Sc3ncn[nH]3)C(=O)c3ccccc32)cc1 = < 400 nM

Short answer for CCC1=NN2C(=N)/C(=C\c3ccc(OCc4cc(=O)n5nc(CC)sc5n4)c(OC)c3)C(=O)N=C2S1 : IC50 was 2310 nM

// sample Fc1cccc(NC(=S)NNc2c3ccccc3nc3ccccc23)c1 , its IC50 was 3310 nM

Documented IC50 of S=c1[nH]nc(-c2cc(-c3ccccc3)n[nH]2)n1/N=C/c1c2ccccc2cc2ccccc12 : > 54000 nM

Notebook: O=C1NC(=O)N(Cc2ccc(F)cc2)C(=O)/C1=C\c1ccc([N+](=O)[O-])s1 , IC50 read as 7450 nM

IC50 measured on Oc1ccc(-c2cn3c(n2)SCC3)cc1O = 1940 nM

Quick note, IC50 for Cc1nnc(NC(=O)c2sc3nc(-c4cccs4)cc(C(F)(F)F)c3c2N)s1 landed at 1600 nM

---

Would you mind telling me the reported pIC50 of each entry?
# tested target: Induced myeloid leukemia cell differentiation protein Mcl-1 (Homo sapiens) (UniProt Q07820)
# procedure details: Mcl-1/Noxa binding inhibitor potency, dose response, biochemical, TR-FRET (AID 1417)
# condition notes: Mcl-1/Noxa peptide interaction, cell-free TR-FRET (terbium/rhodamine), 2 h; measured here: absolute IC50
Scale for pIC50: -log10 of concentration given in mol/L; no unit attached.

The value of pIC50 measured for the compound CC(C)N1CCc2c(sc(NC(=O)c3cc4cc([N+](=O)[O-])ccc4s3)c2C(N)=O)C1 turned out to be 5.40

Input Oc1c(Cl)cc(Cl)cc1Sc1cc(Cl)cc(Cl)c1O . Output pIC50: 5.78

# pIC50 of COc1ccc(/C=C2/C(=O)NC(=S)N(C3CC3)C2=O)cc1CN1C(=O)c2ccccc2C1=O = 5.51

For reference, reported pIC50 for Cc1ccc(C(=O)NNc2c3ccccc3nc3ccccc23)cc1 stands at 5.00

The reported value for O=C(O)c1cccc(-c2ccc(/C=c3/sc4nc5ccccc5n4c3=O)o2)c1 in terms of pIC50 is 5.99

// sample COc1ccc(/C=N/NC(=O)c2ccc(O)cc2O)cc1CSc1ccccn1 , its pIC50 was 5.61

Input N#CC(C#N)=NNc1ccc(S(N)(=O)=O)cc1 . Output pIC50: 5.72

pIC50 in this record for CN=c1scc(C)n1/N=C/c1ccc(O)c(O)c1O : 5.75

Sample O=C(O)CSc1cc(C(=O)c2ccccc2O)cn2c(=O)c3c(-c4ccccc4)csc3nc12 ; pIC50 observed: 5.24

The reported pIC50 of the compound O=C(O)COc1ccc(/C=N/NC(=O)c2ccc(-c3csc(Nc4ccc(Cl)cc4)n3)cc2)cc1 was 6.11

Value of pIC50 reported for the compound Cc1c(Cc2ccccc2)c(NCCN(C)C)n2c(nc3ccccc32)c1C#N is 5.72

Memo: COc1cccc(NS(=O)(=O)c2ccc3c(c2)C2C=CCC2C(c2ccc(C(=O)O)cc2)N3)c1 (configuration not stated) , reported pIC50: 5.99

// sample O=C1CSC(=S)N1/N=C/c1ccc(O)c([N+](=O)[O-])c1 , its pIC50 was 5.86

Lab note: COc1cccc(-n2c(SCc3cc(=O)oc4cc(O)c(O)cc34)nc3ccccc3c2=O)c1 gave pIC50 of 5.66

Summary for this compound, CSCc1nc2sc(C(=O)Nc3nc(C)cs3)c(C)c2c(=O)[nH]1 : pIC50 is 5.39

Sample Cc1ccc(N=C2NC(=O)/C(=C/C=C/c3ccco3)S2)cc1C ; pIC50 observed: 5.34

Sure, the documented pIC50 for CCCCN(CC)CCNc1c(N2CCN(C(=O)OCC)CC2)c(=O)c1=O is 5.66

Data point: COC(=O)CSc1ncnc2c1sc1nc(-c3ccco3)c3c(c12)CC(C)(C)OC3 ; pIC50 = 5.45

Given item CC(=O)N1C(=O)/C(=C2\SC(=S)N(NC(=O)c3ccc(O)cc3)C2=O)c2ccccc21 , the value recorded as its pIC50 is 5.81

Looking up O=C(O)c1cc(N/N=C/c2ccc(N3CCOCC3)s2)ccc1Cl , I see its pIC50 listed as 5.97

GET /value?item= CNc1sc(C(=O)c2ccccc2F)c(N)c1-c1nc2ccccc2s1 &field=pIC50 returns 5.25

Cc1cccc(C)c1NC(=O)CSc1nnc(-c2ccco2)c(-c2ccco2)n1 yielded pIC50 of 5.71

So for Nc1ncnc2oc(-c3ccco3)c(-c3ccco3)c12 , the logged pIC50 turned out to be 5.43

Kindly note the recorded pIC50 for O=[N+]([O-])c1cc(S(=O)(=O)c2ccc(O)c([N+](=O)[O-])c2)ccc1O , which is 6.07
